- TARGET_SYSTEM: Tau
- TEST_DETAILS: rat primary cortical neurons, FLIPR, 25 uM ASO
Bases are written 5' to 3'; sugars and linkages follow in the same order, as letters with counts (s phosphorothioate, o phosphodiester; PS: all linkages phosphorothioate). The collection does not say whether C is 5-methylated. l = locked nucleic acid (LNA); d = 2'-deoxy (DNA)
Form field: calcium oscillation score (one value per entry).

| CHAIN | TARGET_SYSTEM | EXPERIMENTAL_RESULT |
| --- | --- | --- |
| TTCACACAACAAACTATTAT (sugars l4 d12 l4, PS) | Tau | 70.7 % of control |

Need calcium oscillation score of CAGCTATACTATTTCA (sugars l4 d10 l2, PS) , thanks.
60.2 % of control

Entry CTAATGAGCCACACTTGGAG (sugars l3 d14 l3, PS) has what calcium oscillation score?
46.5 % of control

What calcium oscillation score value was documented for this sequence, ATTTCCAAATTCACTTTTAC (sugars lllddldddddddddlldll, PS) ?
110 % of control

// returns reported calcium oscillation score for input TTTGAAGTCCCGAGCCAAAG (sugars l3 d14 l3, PS)
0 % of control

Given the sequence TGAGCACTAACTCTAAGTAG (sugars l3 d14 l3, PS) , what is its reported calcium oscillation score?
21.4 % of control

====

- TARGET_SYSTEM: Tau
- TEST_DETAILS: rat primary cortical neurons, FLIPR, 25 uM ASO
Bases are written 5' to 3'; sugars and linkages follow in the same order, as letters with counts (s phosphorothioate, o phosphodiester; PS: all linkages phosphorothioate). The collection does not say whether C is 5-methylated. l = locked nucleic acid (LNA); d = 2'-deoxy (DNA)
MEASURED_PARAMETER: calcium oscillation score

| CHAIN | EXPERIMENTAL_RESULT |
| --- | --- |
| AAAGTACTATCCACTT (sugars l4 d8 l4, PS) | 79.1 % of control |
| AGGGACCCAATCTTCG (sugars l3 d10 l3, PS) | 73.3 % of control |
| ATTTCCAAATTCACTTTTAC (sugars lllldddddddddlddldll, PS) | 110 % of control |
| GTCAATTTAAATGGA (sugars l3 d9 l3, PS) | 66.7 % of control |
| TATTTCCAAATTCACTTTTA (sugars lldllddddddddddlldll, PS) | 119 % of control |
| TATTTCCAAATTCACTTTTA (sugars lldlddldddddddddllll, PS) | 114 % of control |
| CTTTAATTTAATCACTC (sugars l4 d9 l4, PS) | 17.3 % of control |
| TTCACCCCAAGACACAA (sugars l3 d11 l3, PS) | 59 % of control |
| TAGTAAACACCATCTC (sugars l4 d9 l3, PS) | 77.2 % of control |
| TTTTTTATTCATAACTTTTC (sugars l4 d12 l4, PS) | 63.8 % of control |

Give its calcium oscillation score value. Item: CTCAGATTTTACTTCCA (sugars l4 d11 l2, PS)
45.2 % of control

====

Entries and their calcium oscillation score
- TARGET_SYSTEM: Tau
- TEST_DETAILS: rat primary cortical neurons, FLIPR, 25 uM ASO
Bases are written 5' to 3'; sugars and linkages follow in the same order, as letters with counts (s phosphorothioate, o phosphodiester; PS: all linkages phosphorothioate). The collection does not say whether C is 5-methylated. l = locked nucleic acid (LNA); d = 2'-deoxy (DNA)

Recorded results for 5 sequences are shown here.
| CHAIN | TARGET_SYSTEM | calcium oscillation score |
| --- | --- | --- |
| CCCACATTTGCAAACCA (sugars l2 d13 l2, PS) | Tau | 53.9 % of control |
| TCGATGCTGCCGGTGG (sugars l3 d10 l3, PS) | Tau | 33.9 % of control |
| AGCTACTCACAACCCA (sugars l2 d11 l3, PS) | Tau | 65.6 % of control |
| TTGCCTAATGAGCCACACTT (sugars l3 d14 l3, PS) | Tau | 36.5 % of control |
| TCCTAAGTCAACCACAC (sugars l4 d11 l2, PS) | Tau | 56.6 % of control |

Now for a further sequence.
Suppose we examine the sequence AGACTATTTGCACACTGCCG (sugars l3 d14 l3, PS) ; what calcium oscillation score value has been reported?
40.7 % of control

====

calcium oscillation score listing for selected sequences.
- TARGET_SYSTEM: Tau
- TEST_DETAILS: rat primary cortical neurons, FLIPR, 25 uM ASO
Bases are written 5' to 3'; sugars and linkages follow in the same order, as letters with counts (s phosphorothioate, o phosphodiester; PS: all linkages phosphorothioate). The collection does not say whether C is 5-methylated. l = locked nucleic acid (LNA); d = 2'-deoxy (DNA)

| CHAIN | calcium oscillation score |
| --- | --- |
| GTAACCAACTTTCATCT (sugars l2 d12 l3, PS) | 78.7 % of control |

Recorded calcium oscillation score for CCTGGTTTATGATGGA (sugars l3 d10 l3, PS) , please?
26.1 % of control

I am curious: what calcium oscillation score value has been reported for TAAAGTCCCAGGTC (sugars l3 d8 l3, PS) ?
72.4 % of control

Requested read-out: calcium oscillation score. Entry: TACAATCCACTCCTCC (sugars l2 d10 l4, PS)
56.4 % of control

What does the record list as calcium oscillation score for TTGGCTTTGGCGTTCT (sugars l3 d10 l3, PS) ?
74.5 % of control

Find the recorded calcium oscillation score belonging to GATGCAGGAGTTGTAA (sugars l3 d10 l3, PS) and report it.
0 % of control

Any idea what its calcium oscillation score is? The sequence is TTTCTCTAATTGTCCAA (sugars l4 d9 l4, PS)
56.6 % of control

Consider the sequence TTCTCTAATTGTCCAAT (sugars l4 d9 l4, PS) and give its measured calcium oscillation score.
64 % of control

Form field: reported calcium oscillation score of AACATCTAAACACCTCAATC (sugars l4 d12 l4, PS)
77.6 % of control

# input sequence: GGCGAGTCTACCATGTCGAT (sugars l3 d14 l3, PS) ; wanted: its calcium oscillation score
91.5 % of control

Recorded calcium oscillation score of CTTTGCTTTTACTGACCATG (sugars l3 d14 l3, PS) , please.
0 % of control

====

- TARGET_SYSTEM: STC1
- TEST_DETAILS: rat primary cortical neurons, FLIPR, 25 uM ASO
Bases are written 5' to 3'; sugars and linkages follow in the same order, as letters with counts (s phosphorothioate, o phosphodiester; PS: all linkages phosphorothioate). The collection does not say whether C is 5-methylated. l = locked nucleic acid (LNA); d = 2'-deoxy (DNA)
MEASURED_PARAMETER: calcium oscillation score

Sample answers from the record:
| CHAIN | TARGET_SYSTEM | EXPERIMENTAL_RESULT |
| --- | --- | --- |
| TAGTTATTCCATTCCC (sugars l2 d12 l2, PS) | STC1 | 92.3 % of control |
| ATTATTCTTCTGTTTCC (sugars l2 d11 l4, PS) | STC1 | 67.6 % of control |
| ACATTCAAGCCTTTCC (sugars l4 d10 l2, PS) | STC1 | 81.6 % of control |
| ATCAATATTATTCTTCT (sugars l5 d8 l4, PS) | STC1 | 122 % of control |
| ACCTGTAACTACTTCC (sugars l3 d11 l2, PS) | STC1 | 100 % of control |
| TTACCCAAATACACACATA (sugars l3 d12 l4, PS) | STC1 | 119 % of control |
| CTATTTATATTCCACAG (sugars l4 d11 l2, PS) | STC1 | 69.8 % of control |
| TATTATTCTTCTGTTTC (sugars l3 d10 l4, PS) | STC1 | 53.4 % of control |

Now look at this one.
Suppose we examine the sequence AGCTATTTATATTCCAC (sugars l2 d11 l4, PS) ; what calcium oscillation score value has been reported?
122 % of control

====

- TARGET_SYSTEM: Tau
- TEST_DETAILS: rat primary cortical neurons, FLIPR, 25 uM ASO
Bases are written 5' to 3'; sugars and linkages follow in the same order, as letters with counts (s phosphorothioate, o phosphodiester; PS: all linkages phosphorothioate). The collection does not say whether C is 5-methylated. l = locked nucleic acid (LNA); d = 2'-deoxy (DNA)
MEASURED_PARAMETER: calcium oscillation score

| CHAIN | calcium oscillation score |
| --- | --- |
| TTACAAAGTCCACTTTC (sugars l4 d9 l4, PS) | 69 % of control |
| ACGCACCAGGAACCTTCCAG (sugars l3 d14 l3, PS) | 36.7 % of control |
| TGTCCAGGGACCCAATCTTC (sugars l3 d14 l3, PS) | 39.9 % of control |
| TTACCATCCTATCTTCT (sugars l2 d11 l4, PS) | 72.7 % of control |
| ACTTTATTTCCAAATTCACTTTTAC (sugars lldldddddddddddddddddlldl, PS) | 29.5 % of control |

State the recorded calcium oscillation score for this entry: AATTAACCGAACTGCG (sugars l3 d10 l3, PS)
186 % of control

For TACACCATCCAAGTCAATGC (sugars l3 d14 l3, PS) , what is its reported calcium oscillation score?
6.04 % of control

Return reported calcium oscillation score; argument: CAATTAACCGAACTGC (sugars l3 d10 l3, PS)
89.7 % of control

Consider the sequence shown here: TAGCCCACCCATCAATTTGG (sugars l3 d14 l3, PS) What is its recorded calcium oscillation score?
7.77 % of control

For CCATTTTCACTGTTCACA (sugars l2 d14 l2, PS) , what is its reported calcium oscillation score?
86.3 % of control

For the sequence shown here, CGGCGCAGGCGCGAGC (sugars l3 d10 l3, PS) , give the reported calcium oscillation score.
2.71 % of control
